# PROTOCOL NOTES: Stability of analytes in rat plasma QC samples under storage conditions
# Format: physicochemical
# ASSAY CONTEXT: rat plasma, −80°C to room temperature; medium QC level (49.92–50.06 ng/ml), n = 6
RESULT TYPE: Three freeze–thaw cycles, RE (%)

{"columns": ["INPUT SMILES", "QUANTITATIVE READOUT"],
 "data": [
  ["CC(=O)O[C@H]1C[C@]2(O)[C@@H]3CC[C@@H]4C[C@@H](O)CC[C@]4(C)[C@H]3CC[C@]2(C)[C@H]1c1ccc(=O)oc1", 3.1],
  ["C[C@]12CC[C@H](O)C[C@H]1CC[C@@H]1[C@@H]2[C@H](O)C[C@]2(C)[C@@H](c3ccc(=O)oc3)CC[C@]12O", 10.7],
  ["C[C@]12CC[C@H](O)C[C@@]1(O)CC[C@@H]1[C@@H]2CC[C@]2(C)[C@@H](c3ccc(=O)oc3)[C@@H](O)[C@H]3O[C@]132", 12.1],
  ["CC(=O)O[C@H]1[C@H]2O[C@]23[C@@H]2CC[C@]4(O)C[C@@H](O)CC[C@]4(C)[C@H]2CC[C@]3(C)[C@H]1c1ccc(=O)oc1", 13.2],
  ["C[C@]12CC[C@H]3[C@@H](CC[C@]4(O)C[C@@H](O)CC[C@]34C=O)[C@@]1(O)CC[C@@H]2c1ccc(=O)oc1", "−2.1"]
]}

###

# PROTOCOL NOTES: Pharmacokinetic study in rats after oral administration of cinobufacini capsule (UPLC-MS/MS of plasma)
# Assay type: in vivo, rat
# ASSAY CONTEXT: male, Sprague-Dawley, in vivo; rat plasma, oral cinobufacini capsule 1.8 g/kg (medium), mean ± SD, n = 6; read-out: CLz/F (converted)
# Source text: Male Sprague–Dawley rats (weighing 200–220 g) of SPF grade were offered by Sippr/BK laboratory Animal, Corp., Ltd. (Shanghai, China) and fed in the Laboratory Animal Center of the Shanghai University of Traditional Chinese Medicine. […] An Agilent 1290 Infinity series UPLC system was combined with an Agilent 6460 series triple quadrupole mass spectrometer (Agilent Technologies, Santa Clara, CA, United States) to quantify all 13 analytes in an ESI-positive ionization mode. […]
RESULT TYPE: CL/F

{"columns": ["INPUT SMILES", "RESULT TYPE", "RESULT"],
 "data": [
  ["C[C@]12CC[C@H]3[C@@H](CC[C@]4(O)C[C@@H](O)CC[C@]34C=O)[C@@]1(O)CC[C@@H]2c1ccc(=O)oc1", "CL/F", "110 mL/min/kg"],
  ["C[C@]12CC[C@H](O)C[C@H]1CC[C@@H]1[C@@H]2[C@H](O)C(=O)[C@]2(C)[C@@H](c3ccc(=O)oc3)CC[C@]12O", "CL/F", "71.2 mL/min/kg"],
  ["C[C@]12CC[C@H](O)C[C@H]1CC[C@@H]1[C@@H]2CC[C@]2(C)[C@@H](c3ccc(=O)oc3)[C@@H](O)[C@H]3O[C@]132", "CL/F", "12 mL/min/kg"],
  ["C[C@]12CC[C@H](O)C[C@@]1(O)CC[C@@H]1[C@@H]2CC[C@]2(C)[C@@H](c3ccc(=O)oc3)CC[C@]12O", "CL/F", "66.2 mL/min/kg"],
  ["C[C@]12CC[C@H](O)C[C@H]1CC[C@@H]1[C@@H]2[C@H](O)C[C@]2(C)[C@@H](c3ccc(=O)oc3)CC[C@]12O", "CL/F", "210 mL/min/kg"]
]}
